Target: recombinant human liver GK (Homo sapiens)
Construct: made in house; host or cells: E. coli
Sequence (P35557 1-466 isoform P35557-2): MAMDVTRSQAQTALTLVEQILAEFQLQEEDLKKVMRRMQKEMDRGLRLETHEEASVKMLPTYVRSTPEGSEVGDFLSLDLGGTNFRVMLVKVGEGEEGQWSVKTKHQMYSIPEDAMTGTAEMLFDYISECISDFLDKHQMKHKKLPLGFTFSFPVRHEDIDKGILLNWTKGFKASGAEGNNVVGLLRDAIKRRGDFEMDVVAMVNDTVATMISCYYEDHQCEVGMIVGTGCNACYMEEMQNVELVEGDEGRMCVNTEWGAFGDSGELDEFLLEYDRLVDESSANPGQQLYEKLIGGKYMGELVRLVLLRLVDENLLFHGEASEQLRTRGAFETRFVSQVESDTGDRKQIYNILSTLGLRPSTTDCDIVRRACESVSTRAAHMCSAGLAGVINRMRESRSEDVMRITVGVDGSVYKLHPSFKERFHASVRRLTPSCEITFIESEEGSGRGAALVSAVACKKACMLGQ
Test: Glucokinase-activating effect (Thio-NADH, G6PDH-coupled assay)
Assay type: biochemical
Details: final glucose 2.5 mM; 30° C; separated enantiomers
pEC50: −log10 of the molar value.
Could you label it class 1 if measured pEC50 is 6 or higher, and class 0 otherwise?

Example cases with answers are listed next.
molecule	measured target	class label
O=C1CCC(c2cc3[nH]c(-c4ccccn4)nc3cc2Oc2ccc(C(=O)N3CCC3)nc2)O1 (single isomer, unassigned) [Example 2 B]	recombinant human liver GK (Homo sapiens)	class 1
CN(C)C(=O)Cc1ccc(Oc2cc3nc(-c4ccccn4)[nH]c3cc2C2CCC(=O)O2)cc1 (single isomer, unassigned) [Example 7 B]	recombinant human liver GK (Homo sapiens)	class 1

In: Would you say O=C1CCC(c2cc3[nH]c(-c4ccccn4)nc3cc2Oc2ccc(C(=O)N3CCC3)nc2)O1 (single isomer, unassigned) [Example 2 A] shows pEC50 at minimum 6?
Out: class 0

In: Reported pEC50 at or above 6? O=C1CCC(c2cc3[nH]c(-c4ccccn4)nc3cc2Oc2ccc(C(=O)N3CCC3)cc2)O1 (single isomer, unassigned) [Example 1 B]
Out: class 1

In: Textbook exercise: given the entry CN(C)C(=O)Cc1ccc(Oc2cc3nc(-c4ccccn4)[nH]c3cc2C2CCC(=O)O2)cc1 (single isomer, unassigned) [Example 7 A] , state whether its pEC50 is greater than or equal to 6.
Out: class 0

In: Does CN(C)C(=O)c1ccc(Oc2cc3nc(-c4ccccn4)[nH]c3cc2C2CCC(=O)O2)cn1 (single isomer, unassigned) [Example 4 A] have a reported pEC50 of at least 6?
Out: class 0

Ref: patent US8609699B2
